Assay: MTS cell viability assay
Format: cell-based
Conditions: human, HaCaT keratinocyte cells, 1000 nM
experimental endpoint: viability at 24 h, 1 µM (%)
Only the number, expressed in %, is required.

What viability at 24 h, 1 µM value was documented for this compound, O=C(/C=C/c1ccc(O)c(O)c1)O[C@@H]1C[C@](O)(C(=O)O)C[C@@H](O)[C@H]1O [5-CQA, 5-caffeoylquinic acid] ?
101
